- Tested on: UO-31 renal
- TEST_DESCRIPTION: NCI-60 one-dose screen, 48 h (100 = growth as untreated, 0 = no growth, -100 = all killed)
- TEST_CONTEXT: 10 µM
This is part of a sample that, as a whole, favours compounds with a hit. Of some 83,000 tested, about 20% had one in any assay.
REPORTED_ENDPOINT: growth (%)
Lab book: enter the figure in %, no units written.

Some solved cases for reference:
MOLECULE	VALUE_UNITS	growth
CCOC(=O)CNN	%	91.4
c1ccc2c(c1)Sc1ccccc1S2	%	98.9
COC(=O)Nc1nc2ccc(C(=O)c3ccc(F)cc3)cc2[nH]1	%	1.98

Exercise: Respond only with growth recorded for `CCOC(=O)CSc1c([N+](=O)[O-])ncn1C`
Key: 89.8

Exercise: Respond only with growth recorded for `N#CCCN(CCCN1CCOCC1)CN1C(=O)c2ccccc2C1=O`
Key: 77.2

Exercise: Respond only with growth recorded for O=C1C=CC2=C3c4cc(O)c(O)cc4CC3(O)COC2=C1O (stereo not drawn)
Key: 86.6

Exercise: Respond only with growth recorded for `COCCOC(=O)c1ccc(C(C)C)cc1`
Key: 94.5

Exercise: Respond only with growth recorded for `Cc1nc2ccccc2c2nnc(SCC(=O)N(Cc3ccccc3)c3ccccc3)n12`
Key: 89

Exercise: Respond only with growth recorded for `CCCNC(=O)c1ccc(S(N)(=O)=O)cc1`
Key: 107

Exercise: Respond only with growth recorded for `Cc1cc(OCCO)cc(C)c1Cl`
Key: 109

Exercise: Respond only with growth recorded for `c1ccc(/C(=N\N=C(/c2ccccc2)c2cccs2)c2cccs2)cc1`
Key: 71.2

Exercise: Respond only with growth recorded for `CC(=O)c1cc2c(cc1F)C(C)(C)CCC2(C)C`
Key: 80

Exercise: Respond only with growth recorded for `O=c1cc2oc3cc(O)c(O)cc3c(-c3ccccc3O)c-2cc1O`
Key: 34.9
